System: Human non-small cell lung cancer NCI-H460 cells
protocol: Inhibitory effect on growth of PTX-resistant tumor cell line, parent line (in vitro)
Assay type: cell-based
setupConditions: 96 hours culture, WST-8
reportedMetric: IC50
Provide the measurement as a number trailed by its unit.

Cc1c(-c2nnn(CCO)n2)[nH]c(CO)c1C(=O)c1cccc(Br)c1; 76.2 nM
CO[C@H]1C(=O)[C@]2(C)[C@@H](OC)C[C@H]3OC[C@@]3(OC(C)=O)[C@H]2[C@H](OC(=O)c2ccccc2)[C@]2(O)C[C@H](OC(=O)[C@H](O)[C@@H](NC(=O)OC(C)(C)C)c3ccccc3)C(C)=C1C2(C)C; 1.3 nM
CC(=O)O[C@@]12CO[C@@H]1C[C@H](O)[C@@]1(C)C(=O)[C@H](O)C3=C(C)[C@@H](OC(=O)[C@H](O)[C@@H](NC(=O)OC(C)(C)C)c4ccccc4)C[C@@](O)([C@@H](OC(=O)c4ccccc4)[C@H]21)C3(C)C; 1.5 nM
Cc1c(-c2nnn(CCO)n2)[nH]c(C(C)O)c1C(=O)c1cccc(Br)c1 (stereo not drawn); 68.8 nM
CC(=O)O[C@H]1C(=O)[C@@]2(C)[C@H]([C@H](OC(=O)c3ccccc3)[C@]3(O)C[C@H](OC(=O)[C@H](O)[C@@H](NC(=O)c4ccccc4)c4ccccc4)C(C)=C1C3(C)C)[C@]1(OC(C)=O)CO[C@@H]1C[C@@H]2O [Paclitaxel, paclitaxel, reference compound]; 3.5 nM

q: Requested read-out IC50, target or system Human non-small cell lung cancer NCI-H460 cells, entry `CNC(=O)c1[nH]c(-c2nnn(CCO)n2)c(C)c1C(=O)c1cccc(Br)c1`
a: 374 nM
